- System: rodent lifetime carcinogenesis bioassay, tumor incidence TD50
- assay.comment: carcinogenic potency in animals, long-term in vivo studies, CPDB compilation (AID 1745844)
- test.conditions: rat; strain Charles River CD (Sprague-Dawley); males; inhaled; site: nasal cavity, respiratory epithelium; lesion: adenoma; dosed 52 weeks; study length 52 weeks

{"columns": ["structure.as.smiles", "TD50, mg/kg/day"],
 "data": [
  ["C=CN1CCCC1=O", 8.56]
]}

* * *

- Test system: rodent lifetime carcinogenesis bioassay, tumor incidence TD50
- assay.comment: carcinogenic potency in animals, long-term in vivo studies, CPDB compilation (AID 1745844)
- test.conditions: mouse; strain Swiss albino; males; in drinking water; site: forestomach; lesion: squamous-cell papilloma; dosed 97 weeks; study length 102 weeks
Activity calls are given as the source filed them. How the calls were made is not given here.
assay.readout: TD50

{"columns": ["structure.as.smiles", "recorded.value"],
 "data": [
  ["CN(N)C=O", "11.2 mg/kg/day (inactive)"]
]}

* * *

- Tested on: rodent lifetime carcinogenesis bioassay, tumor incidence TD50
- assay.comment: carcinogenic potency in animals, long-term in vivo studies, CPDB compilation (AID 1745844)
- test.conditions: rat; strain Fischer 344; males; in drinking water; site: tunica vaginalis; lesion: mesothelioma; dosed 52 weeks; study length 52 weeks
assay.readout: TD50

{"columns": ["structure.as.smiles", "recorded.value"],
 "data": [
  ["[O-][Br+2]([O-])O", "36.1 mg/kg/day"]
]}

* * *

- Tested on: rodent lifetime carcinogenesis bioassay, tumor incidence TD50
- assay.comment: carcinogenic potency in animals, long-term in vivo studies, CPDB compilation (AID 1745844)
- test.conditions: rat; strain Fischer 344; males; in feed; site: kidney; lesion: tubule adenoma; dosed 66 weeks; study length 66 weeks

{"columns": ["structure.as.smiles", "measurement.units", "TD50"],
 "data": [
  ["Nc1c(Br)cc(Br)c2c1C(=O)c1ccccc1C2=O", "mg/kg/day", 1770]
]}

* * *

- Tested on: rodent lifetime carcinogenesis bioassay, tumor incidence TD50
- assay.comment: carcinogenic potency in animals, long-term in vivo studies, CPDB compilation (AID 1745844)
- test.conditions: rat; strain Fischer 344; males; in feed; site: any site (literature study); lesion: several types; types named in the paper; dosed 13 weeks; study length 13 weeks

{"columns": ["structure.as.smiles", "TD50 / mg/kg/day"],
 "data": [
  ["Nc1ccc(N=Nc2ccc(-c3ccc(N=Nc4c(S(=O)(=O)O)cc5cc(S(=O)(=O)O)c(N=Nc6ccccc6)c(O)c5c4N)cc3)cc2)c(N)c1", 0.945],
  ["Nc1cc(S(=O)(=O)O)cc2cc(S(=O)(=O)O)c(N=Nc3ccc(-c4ccc(N=Nc5c(S(=O)(=O)O)cc6cc(S(=O)(=O)O)cc(N)c6c5O)cc4)cc3)c(O)c12", 1.18]
]}

* * *

- Test system: rodent lifetime carcinogenesis bioassay, tumor incidence TD50
- assay.comment: carcinogenic potency in animals, long-term in vivo studies, CPDB compilation (AID 1745844)
- test.conditions: rat; strain Osborne-Mendel; females; by gavage; site: kidney; lesion: tubular-cell adenoma; dosed 103 weeks; study length 104 weeks
assay.readout: TD50 (mg/kg/day)

{"columns": ["structure.as.smiles", "recorded.value"],
 "data": [
  ["ClC=C(Cl)Cl", 10700]
]}

* * *

- System: rodent lifetime carcinogenesis bioassay, tumor incidence TD50
- assay.comment: carcinogenic potency in animals, long-term in vivo studies, CPDB compilation (AID 1745844)
- test.conditions: rat; strain Osborne-Mendel; males; in feed; site: any site (literature study); lesion: several types; types named in the paper; dosed 80 weeks; study length 112 weeks
Active and inactive are the calls of the source. How the calls were made is not given here.
assay.readout: TD50

{"columns": ["structure.as.smiles", "assay.readout", "recorded.value"],
 "data": [
  ["CCOP(=S)(OCC)Oc1ccc([N+](=O)[O-])cc1", "TD50", "3.65 mg/kg/day (inactive)"]
]}
